# Tested on: UO-31 renal
# assay_text: NCI tumour cell line growth inhibition, 48 h; in the data active = GI50 below about 0.43 µM; inactive = the rest
In this exercise, the only acceptable responses are active, inactive

Hi team, can someone confirm the assay call for COc1ccc(/C=C/C(=O)c2cc3c(N)c(C(=O)Nc4cccc(Cl)c4C)sc3nc2C)cc1 ?
active

Hi team, can someone confirm the assay call for CC(=O)NS(=O)(=O)c1ccc(-n2nc(-c3ccc(Cl)cc3)cc2-c2cc(O)ccc2O)cc1 ?
inactive

Hi team, can someone confirm the assay call for CCC[CH2][Sn]1([CH2]CCC)[O]C(=O)c2cccc(C)c2[O]1 ?
inactive

Hi team, can someone confirm the assay call for O=C(c1ccc(Cl)cc1)c1no[n+]([O-])c1C(=O)c1ccc(Cl)cc1 ?
inactive

Hi team, can someone confirm the assay call for CCO/C=N/C1=C(C#N)C(c2ccc(OC)cc2)c2sc3c(F)cccc3c2O1 (stereo unspecified) ?
inactive

Hi team, can someone confirm the assay call for COc1cc2c(cc1I)-c1c(cc(OC)c(OC)c1OC)CC[C@@H]2NC(C)=O ?
inactive

Hi team, can someone confirm the assay call for CN(C)c1cc[n+](/C(NS(=O)(=O)c2cc(C(=O)Nc3ccc(Cl)cc3)c(Cl)cc2[S-])=C(\C#N)C(=O)c2ccccc2)cc1 ?
inactive

Hi team, can someone confirm the assay call for CCn1c(=O)c(Oc2ccc(F)cc2F)cc2cnc(NC3CCOCC3)nc21 ?
inactive

Hi team, can someone confirm the assay call for c1cc2c(s1)SSSSS2 ?
inactive

Hi team, can someone confirm the assay call for CCCCCCCCCCS(=O)CC(CO)NC(=O)/C=C/c1c(C)[nH]c(=O)[nH]c1=O (stereo unspecified) ?
inactive

Hi team, can someone confirm the assay call for Nc1nonc1C(=Nc1ccc(F)c(Cl)c1)NO ?
inactive
